- assay system: Testis-specific serine/threonine-protein kinase 2 (Homo sapiens) (UniProt Q96PF2)
- Sequence (Q96PF2 whole entry): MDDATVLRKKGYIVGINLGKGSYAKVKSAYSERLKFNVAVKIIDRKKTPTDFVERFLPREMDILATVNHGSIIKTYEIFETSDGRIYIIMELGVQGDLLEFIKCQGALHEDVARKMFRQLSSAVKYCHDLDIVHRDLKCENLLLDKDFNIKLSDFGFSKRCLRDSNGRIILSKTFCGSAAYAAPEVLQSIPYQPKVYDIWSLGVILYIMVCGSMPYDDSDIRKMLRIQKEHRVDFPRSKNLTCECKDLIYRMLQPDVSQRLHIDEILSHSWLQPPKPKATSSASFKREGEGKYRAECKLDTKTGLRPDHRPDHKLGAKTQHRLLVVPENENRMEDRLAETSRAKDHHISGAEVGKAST
- assay conditions: at 10 µM
outcome measure: residual activity
Answer format: value, then unit.

Query: Look up residual activity for this compound: COc1ccc(C(=O)Nc2sc3c(c2C(N)=O)CCCC3)cc1OC
Result: 85%

Query: Look up residual activity for this compound: O=[N+]([O-])c1ccc(-c2nc(-c3ccc(F)cc3)c(-c3ccncc3)[nH]2)cc1
Result: 94%

Query: Look up residual activity for this compound: Oc1ccc(-c2nc(-c3ccc(F)cc3)c(-c3ccncc3)[nH]2)cc1
Result: 113%

Query: Look up residual activity for this compound: O=C(O)c1ccc2c3c1cccc3c(=O)n1c3ccccc3nc21
Result: 108%

Query: Look up residual activity for this compound: CC(=O)c1ccc(N2CCOCC2)cc1O
Result: 104%

Query: Look up residual activity for this compound: COc1cc2ncnc(Nc3ccc(O)c(Br)c3)c2cc1OC
Result: 91%

Query: Look up residual activity for this compound: Nc1nc(Nc2ccc(S(N)(=O)=O)cc2)nn1C(=S)Nc1c(F)cccc1F
Result: 12%

Query: Look up residual activity for this compound: Cc1cc2ncc(-c3ccccc3)nc2cc1C
Result: 91%

Query: Look up residual activity for this compound: c1ccc(-c2n[nH]c3c2oc2ccccc23)cc1
Result: 96%

Query: Look up residual activity for this compound: COc1cc2ncc(-c3ccccc3)nc2cc1OC
Result: 84%

Query: Look up residual activity for this compound: CC#CC(=O)Nc1cc2c(Nc3ccc(F)c(Cl)c3)ncnc2cn1
Result: 82%

Query: Look up residual activity for this compound: O=C1Nc2cc(Br)ccc2/C1=C1/Nc2ccccc2/C1=N\O
Result: 62%

Query: Look up residual activity for this compound: COc1ccc(CNc2nc(N(CCO)CCO)nc3c2ncn3C(C)C)cc1
Result: 87%

Query: Look up residual activity for this compound: CCN(CC)CCCCN1c2ccccc2Oc2ccc(Cl)cc21
Result: 98%

Query: Look up residual activity for this compound: CN(C)c1ccc(/C=C2\C(=O)Nc3ccccc32)cc1
Result: 97%

Query: Look up residual activity for this compound: CC(C)n1cnc2c(NCc3ccccc3)nc(NCCCO)nc21
Result: 81%
